tgt: B-Raf kinase (SEQ. ID NO: 2) (Homo sapiens (Human))
Sequence (P15056 416-766): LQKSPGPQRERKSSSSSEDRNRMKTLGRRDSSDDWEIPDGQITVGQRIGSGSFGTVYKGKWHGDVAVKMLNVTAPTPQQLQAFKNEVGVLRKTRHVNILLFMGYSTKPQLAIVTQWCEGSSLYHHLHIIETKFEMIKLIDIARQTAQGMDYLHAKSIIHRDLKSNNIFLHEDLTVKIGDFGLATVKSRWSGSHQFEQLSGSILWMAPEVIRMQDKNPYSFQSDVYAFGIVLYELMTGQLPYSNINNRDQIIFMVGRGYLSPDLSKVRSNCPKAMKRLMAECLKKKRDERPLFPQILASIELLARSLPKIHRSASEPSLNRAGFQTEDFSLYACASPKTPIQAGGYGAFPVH
test-protocol: Biochemical Assay for B-Raf (2)
condition-details: Table J, biochemical assay (2); read-out: BRAF (2)
Experimental: Biochemical Assay for B-Raf (2) Activity of B-Raf kinase (SEQ. ID NO: 2) was determined spectroscopically using a coupled pyruvate kinase/lactate dehydrogenase assay that continuously monitors the ATP hydrolysis-dependent oxidation of NADH (e.g., Schindler et al., Science, 2000, 289, 1938-1942). […] Inhibition of B-Raf was measured by adding serial diluted test compound (final assay concentration of 1% DMSO). […] The reaction rate was calculated using the 2 to 3 h time frame. […]
parameter: IC50

item_smiles=Cc1ccc(NC(=O)c2ccnc(C(C)(C)F)c2)cc1-c1cnnc(-c2ccnc(C(N)=O)c2)c1 meas_value="100 to 500 nM"
item_smiles=Cc1ccc(NC(=O)c2ccnc(C3(C#N)CC3)c2)cc1-c1ccnc(-c2ccnc(NC(=O)C3CC3)c2)c1 meas_value="≤ 100 nM"

-- ask What does the record list as IC50 for CNC(=O)c1cc(-c2cc(-c3cc(NC(=O)c4ccnc(C(C)(C)F)c4)ccc3C)cnn2)ccn1 ?
-- reply 100 to 500 nM

-- ask Same thing, different molecule: CNC(=O)c1cc(-c2cncc(-c3cc(NC(=O)c4ccnc(C(C)(C)C#N)c4)ccc3C)c2)ccn1
-- reply ≤ 100 nM

-- ask Same thing, different molecule: Cc1ccc(NC(=O)c2ccnc(C(C)(C)F)c2)cc1-c1cc(-c2ccnc(C(N)=O)c2)ncn1
-- reply ≤ 100 nM

-- ask Same thing, different molecule: Cc1ccc(NC(=O)c2ccnc(C(C)(C)F)c2)cc1-c1ccnc(-c2ccnc(C#N)c2)c1
-- reply 100 to 500 nM
